Molecular target: GST-hCAR-LBD (Homo sapiens)
Construct: purchased Life Technologies (Carlsbad, Calif.) or Invitrogen (Carlsbad, Calif.)
Sequence (Q14994 109-352 limits assumed): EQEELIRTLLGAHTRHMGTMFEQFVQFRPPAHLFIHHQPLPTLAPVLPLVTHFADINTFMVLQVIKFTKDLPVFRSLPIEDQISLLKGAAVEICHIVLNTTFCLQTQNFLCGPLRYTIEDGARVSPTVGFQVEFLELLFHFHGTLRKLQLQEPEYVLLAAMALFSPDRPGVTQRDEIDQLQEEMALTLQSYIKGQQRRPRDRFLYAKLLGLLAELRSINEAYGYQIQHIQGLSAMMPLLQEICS
Experiment: CoAct binding inverse agonist assay (LanthaScreen TR-FRET, fluorescent PGC-1α coactivator recruitment/repression)
Assay type: biochemical
Conditions: read-out: IC50 (CAR inverse agonistic activity)
readout_name: log10 of IC50 (log10 of the value in nM)
Plainly stated, the numbers are log10 of IC50 given in nM.

>>> experimental_result("CCOC(=O)Nc1ccc2c(c1)N(C(=O)CN1C(=O)C=CC1=O)c1ccccc1CC2")
4.60
>>> experimental_result("CCCN(CCC)CC(=O)N1c2ccccc2CCc2ccc(NC(=O)OCC)cc21")
2.32
>>> experimental_result("CCOC(=O)Nc1ccc2c(c1)N(C(=O)CCN1CCOCC1)c1ccccc1CC2")
2.51
>>> experimental_result("CCOC(=O)Nc1ccc2c(c1)N(C(=O)CCN(C)C)c1ccccc1CC2")
3.70

// next item, log10 of IC50 requested
Documented log10 of IC50 of CCOC(=O)Nc1ccc2c(c1)N(C(=O)Cn1cccc1)c1ccccc1CC2 : 1.57

* * *

Recorded pIC50 values for a group of compounds are listed next.
Target: GST-hCAR-LBD (Homo sapiens)
Construct: purchased Life Technologies (Carlsbad, Calif.) or Invitrogen (Carlsbad, Calif.)
Assay: CoAct binding inverse agonist assay (LanthaScreen TR-FRET, fluorescent PGC-1α coactivator recruitment/repression)
Assay type: biochemical
Settings: Table 4; read-out: IC50
Procedure: The effect of putative CAR ligands on the recruitment or repression of PGC-1α binding to hCAR was evaluated by using a LanthaScreen TR-FRET assay according to the manufacturer's instructions. […] The final DMSO concentration was 0.7% in all assay wells. […] The % Inhibition values were then plotted for individual chemicals. […]
// scale note: pIC50 = -log10(conc_M); give the bare number

Worked examples, 5 compounds total:
>>> experimental_result("O=C(Nc1ccc2c(c1)N(C(=O)OC1CCCC1)c1ccccc1CC2)OC1CCCCC1")
7.77
>>> experimental_result("O=C(Nc1ccc2c(c1)N(C(=O)c1cccs1)c1ccccc1CC2)OC1CCCCC1")
7.72
>>> experimental_result("O=C(Cn1cccc1)N1c2ccccc2CCc2ccc(NC(=O)n3cccc3)cc21")
7.09
>>> experimental_result("CC(C)OC(=O)Nc1ccc2c(c1)N(C(=O)OCC(C)(C)C)c1ccccc1CC2")
7.60
>>> experimental_result("CCCN(CCC)CC(=O)N1c2ccccc2CCc2ccc(NC(=O)OC(C)(C)C)cc21")
6.82

Query CC(C)OC(=O)Nc1ccc2c(c1)N(C(=O)OC1CCCC1)c1ccccc1CC2 yields pIC50 of 7.80

According to the records, this compound O=C(Nc1ccc2c(c1)N(C(=O)c1ccco1)c1ccccc1CC2)OC1CCCCC1 displays pIC50 of 7.30

# pIC50 (compound: CCOC(=O)Nc1ccc2c(c1)N(C(=O)CN(CC)CC)c1ccccc1CC2 [Compound 1] ) is 6.16

Value of pIC50 reported for the compound CC(C)OC(=O)Nc1ccc2c(c1)N(C(=O)c1ccco1)c1ccccc1CC2 is 7.12

Lookup result for O=C(Nc1ccc2c(c1)N(C(=O)Cn1cccc1)c1ccccc1CC2)N1CCOCC1 ; measured pIC50: 6.43

* * *

Molecular target: GST-hCAR-LBD (Homo sapiens)
Construct: purchased Life Technologies (Carlsbad, Calif.) or Invitrogen (Carlsbad, Calif.)
Sequence (Q14994 109-352 limits assumed): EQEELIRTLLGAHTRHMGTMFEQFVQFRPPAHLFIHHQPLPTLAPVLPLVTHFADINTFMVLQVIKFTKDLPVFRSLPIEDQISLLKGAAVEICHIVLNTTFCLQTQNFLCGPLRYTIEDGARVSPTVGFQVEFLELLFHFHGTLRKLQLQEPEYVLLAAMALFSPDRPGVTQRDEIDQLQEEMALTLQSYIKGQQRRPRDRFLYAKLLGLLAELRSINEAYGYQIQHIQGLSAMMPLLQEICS
Experiment: CoAct binding inverse agonist assay (LanthaScreen TR-FRET, fluorescent PGC-1α coactivator recruitment/repression)
Assay type: biochemical
Conditions: Table 4; read-out: IC50
Each item that follows carries a reported pIC50.
// returns pIC50 (minus log10 of molar concentration), number only

Known results for molecules:
>>> experimental_result("O=C(Nc1ccc2c(c1)N(C(=O)n1cccc1)c1ccccc1CC2)OC1CCCCC1")
7.85
>>> experimental_result("O=C(Nc1ccc2c(c1)N(C(=O)Cc1ccco1)c1ccccc1CC2)OC1CCCCC1")
7.51
>>> experimental_result("O=C(Nc1ccc2c(c1)N(C(=O)Cc1cccs1)c1ccccc1CC2)OC1CCCCC1")
7.59
>>> experimental_result("CCN(CC)C(=O)N1c2ccccc2CCc2ccc(NC(=O)OC(C)C)cc21")
7.72
>>> experimental_result("CC(C)OC(=O)Nc1ccc2c(c1)N(C(=O)COC1COC1)c1ccccc1CC2")
6.18

The recorded pIC50 for entry CCOC(=O)Nc1ccc2c(c1)N(C(=O)CN(CC)CC)c1ccccc1CC2 [Compound 70] equals 6.21

Reported pIC50 of CCN(CC)CC(=O)N1c2ccccc2CCc2ccc(Nc3nnc(C)o3)cc21 : 4.73

GET /value?item= CC(C)OC(=O)Nc1ccc2c(c1)N(C(=O)Cc1ccco1)c1ccccc1CC2 &field=pIC50 returns 7.43

Entry O=C(Nc1ccc2c(c1)N(C(=O)Cn1cccc1)c1ccccc1CC2)N1CCCC1 , pIC50 reported as 6.55

Kindly note the recorded pIC50 for CC(C)OC(=O)Nc1ccc2c(c1)N(C(=O)c1cccs1)c1ccccc1CC2 , which is 7.92

Measured values drawn from patent US9908890B2 for this set.
